- Test system: staphylococcus aureus16
- Protocol notes: MIC against the infecting test organism
- Assay type: cell-based, staphylococcus aureus
- Study conditions: read-out: MIC
As shown below, each of these compounds has a reported MIC value.
Record the value in µg/mL, omitting the unit from your answer.

Input line: # lookup: MIC of COC1C(OC(C)=O)CC(=O)OC(C)C/C=C/C=C/C(OC2CCC(N(C)C)C(C)O2)C(C)CC(CC=O)C1OC1OC(C)C(OC2CC(C)(O)C(OC(=O)CC(C)C)C(C)O2)C(N(C)C)C1O (centres unmarked)
Output line: 0.25

Input line: # lookup: MIC of CCC(=O)OC1CC(=O)OC(C)C/C=C/C=C/C(OC2CCC(N(C)C)C(C)O2)C(C)CC(CC=O)C(OC2OC(C)C(OC3CC(C)(O)C(OC(=O)CC(C)C)C(C)O3)C(N(C)C)C2O)C1OC (centres unmarked)
Output line: 0.25

Input line: # lookup: MIC of COC1C(O)CC(=O)OC(C)C/C=C/C=C/C(OC2CCC(N(C)C)C(C)O2)C(C)CC(CC=O)C1OC1OC(C)C(OC2CC(C)(O)C(OC(=O)CC(C)C)C(C)O2)C(N(C)C)C1O (centres unmarked)
Output line: 0.5

Input line: # lookup: MIC of CC[C@H]1OC(=O)[C@H](C)[C@@H](O[C@H]2C[C@@](C)(OC)[C@@H](O)[C@H](C)O2)[C@H](C)[C@@H](O[C@@H]2O[C@H](C)C[C@H](N(C)C)[C@H]2O)[C@](C)(O)C[C@@H](C)CN(C)[C@H](C)[C@@H](O)[C@]1(C)O [azithromycin, reference compound]
Output line: 0.5

More entries:
Input line: # lookup: MIC of CC[C@H]1OC(=O)[C@H](C)[C@@H](O[C@H]2C[C@@](C)(OC)[C@@H](O)[C@H](C)O2)[C@H](C)[C@@H](O[C@@H]2O[C@H](C)C[C@H](N(C)C)[C@H]2O)[C@](C)(O)C[C@@H](C)C(=O)[C@H](C)[C@@H](O)[C@]1(C)O [erythrocin, reference compound]
Output line: 1
